test system: MDA-MB-468; assay: Antiproliferative activity against human MDA-MB-468 cells after 72 hrs by SRB assay; format: functional, cell-based; conditions: MDA-MB-468, 72 h
pIC50: −log10 of the molar value.
outcomeMeasure: pIC50

[[record]]
compound = "FC(F)(F)c1ccc(/C=C\\c2cc3ccccc3nc2Cl)cc1"
targetdesc = "MDA-MB-468"
outcomemeasure = "pIC50"
datavalue = 5.13

[[record]]
compound = "FC(F)(F)c1ccc(/C=C\\c2cc3ccc(Cl)cc3nc2Cl)cc1"
targetdesc = "MDA-MB-468"
outcomemeasure = "pIC50"
datavalue = 4.79

[[record]]
compound = "COc1ccc2nc(Cl)c(/C=C\\c3cc(C(F)(F)F)cc(C(F)(F)F)c3)cc2c1"
targetdesc = "MDA-MB-468"
outcomemeasure = "pIC50"
datavalue = 5.24


a = FC(F)(F)c1cccc(/C=C\c2cc3ccccc3nc2Cl)c1
b = FC(F)(F)c1cc(/C=C\c2cc3ccccc3nc2Cl)cc(C(F)(F)F)c1
c = CC(=O)O[C@H]1C(=O)[C@@]2(C)[C@H]([C@H](OC(=O)c3ccccc3)[C@]3(O)C[C@H](OC(=O)[C@H](O)[C@@H](NC(=O)c4ccccc4)c4ccccc4)C(C)=C1C3(C)C)[C@]1(OC(C)=O)CO[C@@H]1C[C@@H]2O
d = FC(F)(F)c1cccc(/C=C/c2cc3ccccc3nc2Cl)c1
e = Fc1ccc(/C=C/c2cc3ccccc3nc2Cl)cc1
Give the ascending ranking of the items by reported pIC50. Labels, ranked as asked.
d, b, a, e, c
(d: 4.62, b: 4.98, a: 5.43, e: 6.92, c: 8.41)
